These entries and their values trace back to paper PMC9911399.

Please provide measured binding signal for the entries that follow.
- system: T1, RBFOX1 RRM RbFoxmut (Fox-RRM*) (Homo sapiens, UniProt Q9NWB1 109-208, R118D;E147R;N151S;E152T)
- T1 sequence: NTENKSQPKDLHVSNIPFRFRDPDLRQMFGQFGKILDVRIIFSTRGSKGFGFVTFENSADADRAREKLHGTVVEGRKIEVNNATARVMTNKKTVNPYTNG
- protocol-summary: EMSA; HiTS-Eq, 1 nM pool, 10 min; buffer printed only for the single-RNA assays: 10 mM Tris pH 7.5, 150 mM NaCl, 3.4 mM EDTA, 0.001% NP-40, 30 C
- details: tags: His6 N-terminal (pET28a); label: 5' 32P
Whole data set: some 16,000 sequences, median “ka relative to ugcaugu” near 0.096, cut for the highest 2% near 0.35. This excerpt belongs to a sample that is enriched for the highest values.

| binder | binding signal |
| --- | --- |
| UAGCAGU (DNA:RNA) RNA: GGGAGACCGGAAUUCAGAUUGUCCUAGCAGUUUAAAUCCCGUCGUAGCCACCA DNA 1: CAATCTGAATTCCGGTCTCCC DNA 2: TGGTGGCTACGACGGGATT | 0.0735 KA relative to UGCAUGU |

Then there is this binder:
In plain terms, AGAAGAU (DNA:RNA) RNA: GGGAGACCGGAAUUCAGAUUGUCCAGAAGAUUUAAAUCCCGUCGUAGCCACCA DNA 1: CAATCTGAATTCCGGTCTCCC DNA 2: TGGTGGCTACGACGGGATT has a documented binding signal of 0.0749 KA relative to UGCAUGU
